# test.target: T1, TNFR1 (Homo sapiens, UniProt P19438)
# T1 chain: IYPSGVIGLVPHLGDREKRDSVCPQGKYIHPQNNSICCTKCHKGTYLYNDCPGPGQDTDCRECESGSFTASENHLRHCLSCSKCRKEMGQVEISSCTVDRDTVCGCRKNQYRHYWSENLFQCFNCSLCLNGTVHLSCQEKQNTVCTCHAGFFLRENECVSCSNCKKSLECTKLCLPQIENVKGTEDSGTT
# experiment.description: yeast display SC50
Examples of binders with documented apparent Kd (screen) follow.
Give your result in nM as a bare value.

Worked examples, 5 binders total:
{"binder": "T97S (designed binder) SMEEEVEKAAKEYEKKKKEAIEKHLEKLKAKDKEAAERFLKELEEAAKEYAKDEAKTMSEEEAKRRAKKYKEKVLLSELSEEEQKEIKEAEEKLVRSILKYVEEAAK", "readout.units": "nM", "apparent Kd (screen)": 2.25}
{"binder": "Y101S (designed binder) SMEEEVEKAAKEYEKKKKEAIEKHLEKLKAKDKEAAERFLKELEEAAKEYAKDEAKTMSEEEAKRRAKKYKEKVLLSELSEEEQKEIKEAEEKLVRTILKSVEEAAK", "readout.units": "nM", "apparent Kd (screen)": 0.956}
{"binder": "K8Q (designed binder) SMEEEVEQAAKEYEKKKKEAIEKHLEKLKAKDKEAAERFLKELEEAAKEYAKDEAKTMSEEEAKRRAKKYKEKVLLSELSEEEQKEIKEAEEKLVRTILKYVEEAAK", "readout.units": "nM", "apparent Kd (screen)": 0.956}
{"binder": "K23I (designed binder) SMEEEVEKAAKEYEKKKKEAIEIHLEKLKAKDKEAAERFLKELEEAAKEYAKDEAKTMSEEEAKRRAKKYKEKVLLSELSEEEQKEIKEAEEKLVRTILKYVEEAAK", "readout.units": "nM", "apparent Kd (screen)": 0.539}
{"binder": "K11A (designed binder) SMEEEVEKAAAEYEKKKKEAIEKHLEKLKAKDKEAAERFLKELEEAAKEYAKDEAKTMSEEEAKRRAKKYKEKVLLSELSEEEQKEIKEAEEKLVRTILKYVEEAAK", "readout.units": "nM", "apparent Kd (screen)": 0.446}

Lookup result for A46V (designed binder) SMEEEVEKAAKEYEKKKKEAIEKHLEKLKAKDKEAAERFLKELEEVAKEYAKDEAKTMSEEEAKRRAKKYKEKVLLSELSEEEQKEIKEAEEKLVRTILKYVEEAAK ; measured apparent Kd (screen): 2.48

The binder T97K (designed binder) SMEEEVEKAAKEYEKKKKEAIEKHLEKLKAKDKEAAERFLKELEEAAKEYAKDEAKTMSEEEAKRRAKKYKEKVLLSELSEEEQKEIKEAEEKLVRKILKYVEEAAK showed apparent Kd (screen) equal to 0.539

Data point: K107T (designed binder) SMEEEVEKAAKEYEKKKKEAIEKHLEKLKAKDKEAAERFLKELEEAAKEYAKDEAKTMSEEEAKRRAKKYKEKVLLSELSEEEQKEIKEAEEKLVRTILKYVEEAAT ; apparent Kd (screen) = 0.869
